- measurement-target: MINK (Homo sapiens, UniProt Q8N4C8)
- Construct: purchased Eurofins Pharma Discovery Services (KinaseProfiler; Cerep BioPrint panel)
- Sequence (Q8N4C8 whole entry): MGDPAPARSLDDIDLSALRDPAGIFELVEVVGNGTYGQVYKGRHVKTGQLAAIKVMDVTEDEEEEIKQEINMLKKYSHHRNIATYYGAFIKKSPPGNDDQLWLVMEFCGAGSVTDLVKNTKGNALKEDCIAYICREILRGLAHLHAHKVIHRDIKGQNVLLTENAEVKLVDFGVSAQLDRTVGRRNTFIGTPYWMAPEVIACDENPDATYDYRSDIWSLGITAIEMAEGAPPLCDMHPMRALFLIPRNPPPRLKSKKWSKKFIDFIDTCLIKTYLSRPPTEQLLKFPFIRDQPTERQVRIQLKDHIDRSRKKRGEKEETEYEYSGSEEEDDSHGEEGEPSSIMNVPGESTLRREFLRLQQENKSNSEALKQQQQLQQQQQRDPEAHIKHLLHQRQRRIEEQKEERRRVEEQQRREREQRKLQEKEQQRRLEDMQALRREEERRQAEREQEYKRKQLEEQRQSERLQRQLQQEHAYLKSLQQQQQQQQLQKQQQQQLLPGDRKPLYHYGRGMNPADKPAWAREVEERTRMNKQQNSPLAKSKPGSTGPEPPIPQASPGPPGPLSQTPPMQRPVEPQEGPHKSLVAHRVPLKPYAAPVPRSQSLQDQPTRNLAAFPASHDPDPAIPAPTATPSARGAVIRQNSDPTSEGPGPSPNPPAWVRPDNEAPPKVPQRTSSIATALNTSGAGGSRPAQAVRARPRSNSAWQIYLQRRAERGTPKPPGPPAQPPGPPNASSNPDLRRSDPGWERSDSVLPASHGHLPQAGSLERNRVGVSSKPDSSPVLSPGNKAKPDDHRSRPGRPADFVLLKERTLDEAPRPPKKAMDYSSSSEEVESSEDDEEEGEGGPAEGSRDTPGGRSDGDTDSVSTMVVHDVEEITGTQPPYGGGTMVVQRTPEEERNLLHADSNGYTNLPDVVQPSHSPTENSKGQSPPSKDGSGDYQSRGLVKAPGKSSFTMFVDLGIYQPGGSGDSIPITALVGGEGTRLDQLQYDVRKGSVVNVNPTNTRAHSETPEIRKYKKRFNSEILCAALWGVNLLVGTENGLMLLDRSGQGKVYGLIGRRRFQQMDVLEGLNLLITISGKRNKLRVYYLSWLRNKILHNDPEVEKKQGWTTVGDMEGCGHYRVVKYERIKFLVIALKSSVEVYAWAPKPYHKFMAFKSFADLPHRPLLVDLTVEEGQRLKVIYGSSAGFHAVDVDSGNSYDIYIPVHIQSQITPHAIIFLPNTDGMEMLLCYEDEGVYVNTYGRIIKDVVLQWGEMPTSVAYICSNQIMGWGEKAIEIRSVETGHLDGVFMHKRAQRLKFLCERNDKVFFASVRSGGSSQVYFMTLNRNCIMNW
- method-notes: kinase selectivity panel
- Assay type: biochemical
- particulars: read-out: percentage of control activity (POC), MINK
# remaining activity at 10 µM per record follows
Report the value in % with no unit label.

(Q) # lookup: remaining activity at 10 µM of CC(C)(C)N1CCC(c2cc(-c3ccc(F)cc3Cl)c3cc[n+]([O-])c(-c4c(Cl)cccc4Cl)c3n2)CC1 [compound 2]
(A) 104

(Q) # lookup: remaining activity at 10 µM of Cn1cc(-c2cccc(-c3nc(C(=O)NC4C5CC6CC4CC(O)(C6)C5)c(N)nc3N)c2)cn1 (centres unmarked) [compound 4]
(A) 94

(Q) # lookup: remaining activity at 10 µM of CS(=O)(=O)N1CCN(c2ccc(Nc3ncc(C(N)=O)c(NC4CC4)n3)cc2)CC1 [compound 5]
(A) 14

(Q) # lookup: remaining activity at 10 µM of Cc1ccc(C(=O)NCC2CC2)cc1-c1ccc2c(c1)NC(=O)C21CCCC1 [compound 3]
(A) 93

(Q) # lookup: remaining activity at 10 µM of COc1c(NC(=O)c2ccc(C)c(-c3nnc4c(NCC(C)(C)C)nccn34)c2)cc(C(C)(C)C)cc1NS(C)(=O)=O [compound 7, reference compound]
(A) 110
